Test system: Plasmodium falciparum
Test: Antiplasmodial activity against Plasmodium falciparum
Assay type: functional, organism-based
pEC50: −log10 of the molar value.
propertyMeasured: pEC50

// pEC50 lookup, key: N=C(N)c1ccc(C2CNCCNCCNCCN2)cc1 (stereo not given)
< 4.00

// pEC50 lookup, key: N=C(N)NCc1ccc(C2CNCCNCCNCCN2)cc1 (stereo not given)
< 4.00

// pEC50 lookup, key: NCc1ccc(C2CNCCNCCNCCN2)cc1 (stereo not given)
< 4.00

// pEC50 lookup, key: N#Cc1ccc(C2CNCCNCCNCCN2)cc1 (stereo not given)
< 4.00

// pEC50 lookup, key: c1ccc2c(c1)ccc1ccc(C3CNCCNCCNCCN3)cc12 (stereo not given)
> 5.82

* * *

Test: Cytotoxicity against HEK cells
Assay type: cell-based
Conditions: Homo sapiens, HEK293
Assignment: determine reported EC50 for the given compounds.

// EC50 lookup, key: N=C(N)NCc1ccc(C2CNCCNCCNCCN2)cc1 (stereo unspecified)
> 200 µM

// EC50 lookup, key: O=C(Nc1ccc([N+](=O)[O-])cc1)OCCN1CCN(CCOC(=O)Nc2ccc([N+](=O)[O-])cc2)CCN(CCOC(=O)Nc2ccc([N+](=O)[O-])cc2)CCN(CCOC(=O)Nc2ccc([N+](=O)[O-])cc2)CC1
1.3 µM

// EC50 lookup, key: NCc1ccc(C2CNCCNCCNCCN2)cc1 (stereo unspecified)
> 200 µM

// EC50 lookup, key: N=C(N)c1ccc(C2CNCCNCCNCCN2)cc1 (stereo unspecified)
> 200 µM

// EC50 lookup, key: N#Cc1ccc(C2CNCCNCCNCCN2)cc1 (stereo unspecified)
> 200 µM

// EC50 lookup, key: c1ccc2c(c1)ccc1ccc(C3CNCCNCCNCCN3)cc12 (stereo unspecified)
24.9 µM

* * *

Test: Lipophilicity, log P of the compound
Format: physicochemical
Details: octanol/water
propertyMeasured: logP
Respond numerically, and do not add a unit to the figure.

// logP lookup, key: NCc1ccc(C2CNCCNCCNCCN2)cc1 (centres undefined)
-1.12

// logP lookup, key: N#Cc1ccc(C2CNCCNCCNCCN2)cc1 (centres undefined)
-0.65

// logP lookup, key: N=C(N)NCc1ccc(C2CNCCNCCNCCN2)cc1 (centres undefined)
-1.64

// logP lookup, key: N=C(N)c1ccc(C2CNCCNCCNCCN2)cc1 (centres undefined)
-1.44

Data origin, for the record: ChEMBL document CHEMBL1142482
